Give %Inh for every item shown.
test system: MLK2; conditions: concentration: 1 μM, replicates: in singlicate; n = 1;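 note: KINOMEscan kinase panel screen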
Record the value in %, omitting the unit from your answer.

stdin: May I ask what %Inh has been recorded for CCC(=O)c1c(-c2ccccc2)c2cc(Cl)ccc2c(=O)n1Cc1cc(S(C)(=O)=O)n(CC(F)F)n1 ?
stdout: 0

stdin: Request: COc1cc2nccc(Nc3cccc(Oc4ccccc4)c3)c2cc1OC.Cl
stdout: 0

stdin: Same question for CCS(=O)(=O)c1ccc(OC)c(Nc2ncc(-c3ccc(F)cc3)o2)c1.Cl please.
stdout: 0

stdin: Then this molecule: Cn1c(=O)c(F)c(Nc2ccc(I)cc2F)c2c(=O)n(OC[C@H](O)CO)cnc21
stdout: 25

stdin: Item: COc1cc2ncn(-c3cc(OCc4ccncc4)c(C(N)=O)s3)c2cc1OC
stdout: 0

stdin: Thanks! And COc1ccc(-n2cnc3c(N)ncnc32)cc1 ?
stdout: 37

stdin: One more molecule: Cl.NS(=O)(=O)c1cccc(Nc2cc(-c3ccc(F)cc3)n[nH]2)c1
stdout: 4

stdin: // repeat for CN(C)c1cc(-c2ccc3c(N)n[nH]c3c2)nc(N)n1 and report
stdout: 0

stdin: One more molecule: CCS(=O)c1ccc(-c2coc3ccc(-c4nnc(C)o4)cc23)cc1 (stereo not drawn)
stdout: 7
